The following compounds are shown together with reported IC50 values.
- Target Under Test: Mu-type opioid receptor (Homo sapiens)
- Sequence (P35372 whole entry): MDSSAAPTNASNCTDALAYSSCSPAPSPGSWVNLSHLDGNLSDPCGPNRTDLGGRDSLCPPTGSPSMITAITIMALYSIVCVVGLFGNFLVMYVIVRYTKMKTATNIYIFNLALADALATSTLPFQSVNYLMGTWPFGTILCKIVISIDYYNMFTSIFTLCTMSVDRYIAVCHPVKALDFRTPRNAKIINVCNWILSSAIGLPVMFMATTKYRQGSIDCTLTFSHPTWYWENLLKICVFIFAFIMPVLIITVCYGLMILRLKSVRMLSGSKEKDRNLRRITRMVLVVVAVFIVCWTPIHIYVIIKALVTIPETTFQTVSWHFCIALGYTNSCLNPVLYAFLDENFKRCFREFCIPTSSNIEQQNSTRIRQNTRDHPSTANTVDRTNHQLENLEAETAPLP
- Experimental Protocol: Activity at human cloned mu opioid receptor expressed in CHO cells assessed as inhibition of DAMGO-induced [35S]GTPgammaS binding
- Assay type: functional, cell-based
// note: answer is a bare numeric in nM

CC1C2Cc3ccc(O)cc3[C@@]1(C)CCN2C[C@@H]1CCCO1 (single isomer, unassigned) = 17
NC(=O)c1ccc2c(c1)[C@@]13CCCC[C@@]1(O)[C@@H](C2)N(CC1CCC1)CC3 = 30
C[C@H]1[C@H]2C(=O)c3ccc(O)cc3[C@]1(C)CCN2CC1CC1 = 130

From here, focus on the item given below.
Looking up CC1C2Cc3ccc(C(N)=O)cc3C1(C)CCN2C (centres undefined) , I found its IC50 recorded as 25

###

Lab note: pKi readings collected with Mu-type opioid receptor (Cavia porcellus) for the following compounds.
Sequence (P97266 whole entry): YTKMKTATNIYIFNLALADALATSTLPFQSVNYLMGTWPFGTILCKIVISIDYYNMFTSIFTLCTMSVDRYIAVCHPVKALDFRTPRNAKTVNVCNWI
For clarity, pKi is expressed as the negative log10 of concentration in mol/L.

Illustrative cases are given below, each with its answer.
CCC12CCN(CC3CC3)C(C(=O)c3ccc(C(N)=O)cc31)C2C (stereo not drawn) = 8.92
CC1C2C(=O)c3ccc(C(N)=O)cc3C1(C)CCN2CC1CC1 (stereo not drawn) = 8.85

Entry CCC12CCN(CC3CC3)C(C(=O)c3ccc(O)cc31)C2C (stereo not drawn) under Mu-type opioid receptor (Cavia porcellus) had pKi of 9.11

###

- Test system: CHO
- Experimental Protocol: Ratio of Ki for human delta opioid receptor to Ki for human kappa opioid receptor expressed in CHO cells
- Assay type: cell-based
The following compounds are shown together with reported Ratio Ki values.
When you answer, write just the number.

C=CCN1CC[C@]23c4c5ccc(O)c4O[C@H]2[C@@H](O)C=C[C@H]3[C@H]1C5 = 320

Looking up CN(C)C[C@H]1CCCC[C@]1(O)c1cccc(C(N)=O)c1 (relative stereo) , I found its Ratio Ki recorded as 7

Looking up NC(=O)c1ccc2c3c1O[C@H]1C4NC5C(C[C@@]6(O)[C@H]7Cc8ccc(C(N)=O)c9c8[C@@]6(CCN7CC6CC6)[C@H]5O9)C4C[C@@]4(O)[C@@H](C2)N(CC2CC2)CC[C@]314 (some centres undefined) , I found its Ratio Ki recorded as 50

Looking up CC1C2Cc3ccc(C(N)=O)cc3C1(C)CCN2C (centres undefined) , I found its Ratio Ki recorded as 17

###

Lab note: pKi readings collected with Kappa-type opioid receptor (Homo sapiens, UniProt P41145) for the following compounds.
Sequence (P41145 whole entry): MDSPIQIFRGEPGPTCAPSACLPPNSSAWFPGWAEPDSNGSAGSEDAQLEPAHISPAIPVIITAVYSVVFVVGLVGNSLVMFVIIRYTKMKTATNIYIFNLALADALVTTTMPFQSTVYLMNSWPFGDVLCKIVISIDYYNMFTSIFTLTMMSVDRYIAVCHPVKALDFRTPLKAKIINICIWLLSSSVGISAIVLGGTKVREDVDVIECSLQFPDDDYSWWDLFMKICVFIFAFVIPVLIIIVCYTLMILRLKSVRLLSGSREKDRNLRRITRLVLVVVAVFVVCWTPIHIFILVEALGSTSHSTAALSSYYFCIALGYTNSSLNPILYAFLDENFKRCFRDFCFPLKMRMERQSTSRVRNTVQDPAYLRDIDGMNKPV
For clarity, pKi is expressed as the negative log10 of concentration in mol/L.

Illustrative cases are given below, each with its answer.
C[C@H]1[C@@H]2Cc3ccc(O)cc3[C@]1(C)CCN2C = 8.00
COc1cccc(C2(O)CCCCC2CN(C)C)c1 (stereo not drawn) = 7.85

From here, focus on the item given below.
Entry CC1C2Cc3ccc(C(N)=O)cc3C1(C)CCN2CCc1ccccc1 (stereo not drawn) under Kappa-type opioid receptor (Homo sapiens, UniProt P41145) had pKi of 9.26

All values here come from ChEMBL document CHEMBL1139291.
